# System under test: T1, Anti-CD28 Fab (SEQ ID NOs: 696, 697)
# T1 construct: In the phage ELISA the Fab was biotinylated and captured on neutravidin coated plates
# T1 sequence (VH, as listed by the source, chain 1 of 2): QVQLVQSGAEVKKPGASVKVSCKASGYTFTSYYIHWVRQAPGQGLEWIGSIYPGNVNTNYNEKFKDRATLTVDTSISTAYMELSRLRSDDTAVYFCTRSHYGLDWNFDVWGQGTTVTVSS
# T1 sequence (VL, as listed by the source, chain 2 of 2): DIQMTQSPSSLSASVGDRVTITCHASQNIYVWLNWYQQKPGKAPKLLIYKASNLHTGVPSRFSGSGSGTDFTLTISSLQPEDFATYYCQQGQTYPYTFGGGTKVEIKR
# Assay protocol: phage ELISA; biotinylated anti-CD28 Fab on neutravidin plate, clonal phage supernatant, anti-M13 HRP detection;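 also: crude supernatants of single phage clones picked after panning were screened for binding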
Measure: Anti-CD28 Fab signal (phage binding ELISA)

These recorded examples may help you get a feel for the data.
YCDGHNWEYMEKCL (Clonal phage supernatant; not shown: fused to the pIII filament protein of the bacteriophage) [Phage-1072]	1.38
YCDGHDARYMEKCL (Clonal phage supernatant; not shown: fused to the pIII filament protein of the bacteriophage) [Phage-1066]	1.4
YCDGHSPEYMQKCL (Clonal phage supernatant; not shown: fused to the pIII filament protein of the bacteriophage) [Phage-1067]	1.4
YCDGHSPEHMGKCL (Clonal phage supernatant; not shown: fused to the pIII filament protein of the bacteriophage) [Phage-1065]	1.4
YCSGHLPEYMDKCL (Clonal phage supernatant; not shown: fused to the pIII filament protein of the bacteriophage) [Phage-1069]	1.39

Look up Anti-CD28 Fab signal (phage binding ELISA): YCDGHSLEYMLKCL (Clonal phage supernatant; not shown: fused to the pIII filament protein of the bacteriophage) [Phage-1070] 1.39

Also need YCEGHSAEYIAKCL (Clonal phage supernatant; not shown: fused to the pIII filament protein of the bacteriophage) [Phage-1064] , thanks. 1.41
